MEASURED ON: Neuronal acetylcholine receptor; alpha3/beta4 (Homo sapiens, UniProt P30926+P32297)
Sequence (P30926 whole entry): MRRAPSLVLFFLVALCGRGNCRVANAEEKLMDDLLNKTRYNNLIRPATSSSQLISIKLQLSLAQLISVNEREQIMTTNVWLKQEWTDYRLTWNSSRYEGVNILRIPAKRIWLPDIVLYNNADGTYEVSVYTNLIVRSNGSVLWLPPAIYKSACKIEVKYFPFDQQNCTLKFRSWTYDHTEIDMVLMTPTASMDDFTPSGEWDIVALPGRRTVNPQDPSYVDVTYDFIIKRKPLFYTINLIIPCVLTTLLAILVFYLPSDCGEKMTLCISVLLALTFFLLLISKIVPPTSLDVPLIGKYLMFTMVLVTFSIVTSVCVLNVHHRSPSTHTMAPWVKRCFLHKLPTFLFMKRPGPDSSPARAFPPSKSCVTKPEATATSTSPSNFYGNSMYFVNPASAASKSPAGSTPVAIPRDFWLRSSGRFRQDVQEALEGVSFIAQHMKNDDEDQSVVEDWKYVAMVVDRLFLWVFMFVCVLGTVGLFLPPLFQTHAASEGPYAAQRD
Sequence (P32297 whole entry): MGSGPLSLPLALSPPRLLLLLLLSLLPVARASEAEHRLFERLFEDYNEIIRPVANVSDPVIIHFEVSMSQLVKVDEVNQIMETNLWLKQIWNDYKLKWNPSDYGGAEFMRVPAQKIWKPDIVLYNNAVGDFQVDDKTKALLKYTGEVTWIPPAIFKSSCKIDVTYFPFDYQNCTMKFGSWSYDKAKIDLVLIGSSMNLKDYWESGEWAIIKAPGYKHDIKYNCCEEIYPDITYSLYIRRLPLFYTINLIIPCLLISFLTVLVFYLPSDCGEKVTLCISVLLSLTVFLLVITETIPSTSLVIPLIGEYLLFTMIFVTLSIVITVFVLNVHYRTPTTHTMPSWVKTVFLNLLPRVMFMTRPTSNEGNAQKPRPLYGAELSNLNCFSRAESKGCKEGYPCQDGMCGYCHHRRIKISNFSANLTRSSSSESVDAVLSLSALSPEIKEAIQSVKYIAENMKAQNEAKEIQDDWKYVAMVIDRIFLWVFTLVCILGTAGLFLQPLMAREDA
ASSAY COMMENT: Displacement of [3H]epibatidine from alpha3beta4 nAChR expressed in IMR32 cells
REPORTED ENDPOINT: IC50 (nM)

{"columns": ["CHEMICAL STRING", "MEASURED ON", "REPORTED ENDPOINT", "MEAS VALUE"],
 "data": [
  ["O=c1c(Br)ccc2n1C[C@@H]1CNC[C@H]2C1", "Neuronal acetylcholine receptor; alpha3/beta4 (Homo sapiens, UniProt P30926+P32297)", "IC50", 15.6]
]}

###

MEASURED ON: 5-hydroxytryptamine receptor 3A (Mus musculus, UniProt P23979)
Sequence (P23979 whole entry): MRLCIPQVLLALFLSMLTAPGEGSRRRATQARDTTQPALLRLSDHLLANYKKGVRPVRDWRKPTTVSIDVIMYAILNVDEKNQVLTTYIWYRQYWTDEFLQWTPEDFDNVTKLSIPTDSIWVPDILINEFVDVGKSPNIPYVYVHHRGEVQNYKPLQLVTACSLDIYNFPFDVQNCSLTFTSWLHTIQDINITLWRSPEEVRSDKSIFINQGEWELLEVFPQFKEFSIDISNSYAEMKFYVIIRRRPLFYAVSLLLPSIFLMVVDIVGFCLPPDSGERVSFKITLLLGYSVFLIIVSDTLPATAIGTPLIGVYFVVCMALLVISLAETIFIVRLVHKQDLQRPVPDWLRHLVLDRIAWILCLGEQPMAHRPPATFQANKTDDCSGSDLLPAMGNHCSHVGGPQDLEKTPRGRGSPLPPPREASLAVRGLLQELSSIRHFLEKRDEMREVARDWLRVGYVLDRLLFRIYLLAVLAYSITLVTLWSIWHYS
REPORTED ENDPOINT: log10 of Ki (log10 of the value in nM)

{"columns": ["CHEMICAL STRING", "log10 of Ki"],
 "data": [
  ["Fc1ccc2oc(N3CCN4CCC3CC4)nc2c1", 0.59],
  ["c1cc2nc(N3CCN4CCC3CC4)oc2cn1", 2.21],
  ["c1cc2oc(N3CCN4CCC3CC4)nc2nc1N1CCCC1", 3.80],
  ["c1cnc2nc(N3CCN4CCC3CC4)oc2c1", 2.76],
  ["Clc1cnc2nc(N3CCN4CCC3CC4)oc2c1", 3.14],
  ["Cc1nc2nc(N3CCN4CCC3CC4)oc2cc1Cl", 2.39],
  ["c1ccc(Oc2cnc3nc(N4CCN5CCC4CC5)oc3c2)cc1", 3.29],
  ["Fc1cnc2nc(N3CCN4CCC3CC4)oc2c1", 3.79],
  ["c1ccc2oc(N3CCN4CCC3CC4)nc2c1", 1.11],
  ["Brc1cnc2nc(N3CCN4CCC3CC4)oc2c1", 2.97]
]}
